Data provenance is paper PMC10397247.

- test system: T1, 4H462-bN
- T1 chain: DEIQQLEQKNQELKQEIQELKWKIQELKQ
- assay details: two-hybrid library CCNG1;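 further: natural log of median RNA to DNA barcode read ratio; higher means stronger binding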
property label: interaction score
Quick one: just the number, no unit, thanks!

Given the binder DENQQLEQKIQELEQKIQELKWKNQELKQ [4H1328-bN] , what is its reported interaction score?
-1.6

Given the binder DEIQQLEQENQELEQKNQELEWKIQELKQ [4H182-bN] , what is its reported interaction score?
-0.134

Given the binder DENQQLEQENQELEQKIQELKWEIQELEQ [4H1193-bN] , what is its reported interaction score?
1.11

Given the binder DEIQQLEQKNQELKQEIQELKWKIQELKQ [4H462-bN] , what is its reported interaction score?
-0.578

Given the binder DEIQQLEQKIQELKQEIQELKWENQELEQ [4H331-bN] , what is its reported interaction score?
-0.381

Given the binder DENQQLKQKIQELEQKNQELEWKIQELEQ [4H1845-bN] , what is its reported interaction score?
-0.741

Given the binder DKNQQLKQKNQELEQKIQELEWEIQELEQ [4H4001-bN] , what is its reported interaction score?
-0.667
